# EXPERIMENTAL PROTOCOL: Vandetanib concentration in brain and tumor of NSG mice
# Assay type: in vivo
# CONDITION LABEL: mouse, normal brain, intraperitoneal, combined with everolimus
QUANTITY NAME: concentration at 2 h (µM)

> print(dat)
                                 mol.smiles         quantity.name  unit.abbrev  endpoint.result
1  COc1cc2c(Nc3ccc(Br)cc3F)ncnc2cc1OCC1CCN(C)CC1  concentration at 2 h           µM               10

====

# EXPERIMENTAL PROTOCOL: Vandetanib concentration in brain and tumor of NSG mice
# Type: in vivo
# CONDITION LABEL: mouse, tumour (GEMM allograft), intraperitoneal, combined with everolimus
QUANTITY NAME: concentration at 2 h

> print(dat)
                                 mol.smiles  endpoint.result
1  COc1cc2c(Nc3ccc(Br)cc3F)ncnc2cc1OCC1CCN(C)CC1           < 5 µM
